Molecular target: STING (Homo sapiens, UniProt Q86WV6, G230A/H232R/R293Q/R71H)
Sequence (Q86WV6 whole entry R71H/G230A/H232R/R293Q): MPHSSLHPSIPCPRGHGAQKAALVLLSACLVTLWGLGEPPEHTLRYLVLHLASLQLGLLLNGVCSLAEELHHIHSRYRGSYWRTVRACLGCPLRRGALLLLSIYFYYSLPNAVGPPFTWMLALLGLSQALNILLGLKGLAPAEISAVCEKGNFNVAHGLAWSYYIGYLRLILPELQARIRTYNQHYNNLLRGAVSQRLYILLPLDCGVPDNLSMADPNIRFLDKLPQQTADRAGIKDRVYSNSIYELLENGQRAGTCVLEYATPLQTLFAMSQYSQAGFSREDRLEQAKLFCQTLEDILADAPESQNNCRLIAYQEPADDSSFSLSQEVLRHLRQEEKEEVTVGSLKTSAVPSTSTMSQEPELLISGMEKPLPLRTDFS
Experiment: STING reporter assay in THP1-Dual KO-IFNAR2 cells (2′3′cGAMP stimulation, luciferase reporter)
Details: 15 μM 2′3′cGAMP stimulation, 24 h, read-out: Pharmaron, THP1_IFNAR2 STING 24 h Luci Normalized: GeoMean EC50
pEC50: −log10 of the molar value.
Property: pEC50; scope: individual compounds

// worked examples, pEC50 included
| Compound | Target System | pEC50 |
| --- | --- | --- |
| CC[C@H](O)C(=O)Nc1c[nH]c2ccc(OCC[C@@H]3C[C@@H]4CN(CC(F)(F)F)C[C@@H]4C3)cc12 [Compound 521] | STING (Homo sapiens, UniProt Q86WV6, G230A/H232R/R293Q/R71H) | 6.00 to 6.70 |
| CC(=O)Nc1c[nH]c2ccc(CCOc3cncc(C(F)F)c3)cc12 [Compound 439] | STING (Homo sapiens, UniProt Q86WV6, G230A/H232R/R293Q/R71H) | 4.00 to 5.30 |
| C[C@]1(C(=O)Nc2c[nH]c3ccc(O[C@H]4C[C@H](c5ccc(C(F)(F)F)cc5)C4)cc23)CC[C@H](O)CC1 (single isomer, unassigned) [Compound 425] | STING (Homo sapiens, UniProt Q86WV6, G230A/H232R/R293Q/R71H) | 6.00 to 6.70 |
| CC(=O)Nc1c[nH]c2c(C)cc(COCc3ccc(C(F)(F)F)cc3)cc12 [Compound 272] | STING (Homo sapiens, UniProt Q86WV6, G230A/H232R/R293Q/R71H) | 5.30 to 6.00 |
| O=C(Nc1c[nH]c2ccc(CCOc3ccc(C(F)(F)F)cc3)cc12)C1CCC1 [Compound 145] | STING (Homo sapiens, UniProt Q86WV6, G230A/H232R/R293Q/R71H) | 6.00 to 6.70 |

// query pEC50 value for entry COCCC(=O)Nc1c[nH]c2ccc(O[C@H]3C[C@H](c4ccc(C(F)(F)F)cc4)C3)cc12 [Compound 241]
6.70 to 7.40

Please give the result for CC1(C(=O)Nc2c[nH]c3ccc(O[C@H]4C[C@H](c5ccc(C(F)(F)F)cc5)C4)cc23)CCNCC1 [Compound 460] too.
5.30 to 6.00

Please give the result for O=C(Nc1c[nH]c2ccc(OCC[C@@H]3C[C@@H]4CN(CC(F)(F)F)C[C@@H]4C3)cc12)C1CC1 [Compound 182] too.
6.00 to 6.70

Please give the result for CC1(C)CC1C(=O)Nc1c[nH]c2ccc(OCc3ccc(C(F)(F)F)cc3)cc12 (stereo not drawn) [Compound 155] too.
6.00 to 6.70

----------
Molecular target: STING (Homo sapiens, UniProt Q86WV6, G230A/H232R/R293Q/R71H)
Test: STING reporter assay in THP1-Dual KO-IFNAR2 cells (2′3′cGAMP stimulation, luciferase reporter)
Conditions: 15 μM 2′3′cGAMP stimulation, 24 h, read-out: Pharmaron, THP1_IFNAR2 STING 24 h Luci Normalized: GeoMean EC50
pEC50: −log10 of the molar value.
Observed Property: pEC50

// worked examples, pEC50 included
| Compound | pEC50 |
| --- | --- |
| O=C(Nc1c[nH]c2ccc(CCOc3ccc(C(F)(F)F)cc3)cc12)C1(F)CC1 [Compound 400] | 6.00 to 6.70 |
| CC(=O)Nc1c[nH]c2ccc(CCOc3ccc(C(F)(F)F)cc3)cc12 [Compound 127] | 6.70 to 7.40 |

--- query ---
For the record CC(=O)Nc1c[nH]c2ccc(CCOc3ccc(-c4ccncc4)cc3)cc12 [Compound 451] , what value of pEC50 is listed for STING (Homo sapiens, UniProt Q86WV6, G230A/H232R/R293Q/R71H)?
5.30 to 6.00

----------
Biological target: STING (Homo sapiens, UniProt Q86WV6, G230A/H232R/R293Q/R71H)
Test: STING reporter assay in THP1-Dual KO-IFNAR2 cells (2′3′cGAMP stimulation, luciferase reporter)
Conditions: 15 μM 2′3′cGAMP stimulation, 24 h, read-out: Pharmaron, THP1_IFNAR2 STING 24 h Luci Normalized: GeoMean EC50
pEC50: −log10 of the molar value.
Observed Property: pEC50

// worked examples, pEC50 included
| Record Smiles | Observed Property | Result Value |
| --- | --- | --- |
| CC(=O)Nc1c[nH]c2c(C)cc(OCCC3CCN(CC(F)(F)F)CC3)cc12 | pEC50 | 4.00 to 5.30 |
| CO[C@H]1C[C@H](C(=O)Nc2c[nH]c3ccc(OCC[C@@H]4C[C@@H]5CN(CC(F)(F)F)C[C@@H]5C4)cc23)C1 | pEC50 | 6.70 to 7.40 |
| CC(=O)Nc1c[nH]c2ccc(CCOc3cccc(CC(F)(F)F)c3)cc12 | pEC50 | 6.70 to 7.40 |
| CC(=O)Nc1c[nH]c2ccc(CCCc3ccc(C(F)(F)F)cc3)cc12 | pEC50 | 6.70 to 7.40 |
| CC1(C(=O)Nc2c[nH]c3ccc(CCOc4ccc(C(F)(F)F)cc4)cc23)CCOCC1 | pEC50 | 6.00 to 6.70 |

--- query ---
For the record O=C(Nc1c[nH]c2ccc(OCc3ccc(C(F)(F)F)cc3)cc12)C1(C(F)(F)F)CC1 , what value of pEC50 is listed for STING (Homo sapiens, UniProt Q86WV6, G230A/H232R/R293Q/R71H)?
6.00 to 6.70

----------
Molecular target: STING (Homo sapiens, UniProt Q86WV6, G230A/H232R/R293Q/R71H)
Assay: STING reporter assay in THP1-Dual KO-IFNAR2 cells (2′3′cGAMP stimulation, luciferase reporter)
Conditions: 15 μM 2′3′cGAMP stimulation, 24 h, read-out: Pharmaron, THP1_IFNAR2 STING 24 h Luci Normalized: GeoMean EC50
Observed Property: EC50

// worked examples, EC50 included
| Compound | EC50 |
| --- | --- |
| O=C(Nc1c[nH]c2ccc(CCCn3cc(C(F)(F)F)cn3)cc12)C1CC1 | 200 to 1000 nM |
| CC(C)(C)C(=O)Nc1c[nH]c2ccc(CCOc3ccc(C(F)(F)F)cc3)cc12 | 200 to 1000 nM |
| CCC(=O)Nc1c[nH]c2ccc(OCCc3ccc(C(F)(F)F)cc3)cc12 | 40 to 200 nM |
| CC(C)(C)C(=O)Nc1c[nH]c2ccc(OCCc3ccc(C(F)(F)F)cc3)cc12 | 200 to 1000 nM |
| C[C@]1(C(=O)Nc2c[nH]c3ccc(O[C@H]4C[C@H](c5ccc(C(F)(F)F)cc5)C4)cc23)CC[C@@H](O)CC1 (single isomer, unassigned) | 40 to 200 nM |
| O=C(Nc1c[nH]c2ccc(COCc3ccc(C(F)(F)F)cc3)cc12)C1CCC1 | 40 to 200 nM |
| CC(=O)Nc1c[nH]c2ccc(OC[C@@H]3[C@H]4CN(CC(F)(F)F)C[C@@H]34)cc12 | 5000 to 100000 nM |
| CC(CCc1ccc(C(F)(F)F)cc1)c1ccc2[nH]cc(NC(=O)C3CCC3)c2c1 (centres unmarked) | 1000 to 5000 nM |

// query EC50 value for entry O=C(Nc1c[nH]c2ccc(OCc3ccc(C(F)(F)F)cc3)cc12)C1CC(F)C1 (centres unmarked)
200 to 1000 nM

Please give the result for CC(=O)Nc1c[nH]c2ccc(CNS(=O)(=O)c3ccc(C(F)(F)F)cc3)cc12 too.
5000 to 100000 nM

Please give the result for O=C(Nc1c[nH]c2ccc(O[C@H]3C[C@@H](c4ccc(C(F)(F)F)cc4)C3)cc12)C1CC1 too.
40 to 200 nM

Please give the result for N#CC1(C(=O)Nc2c[nH]c3ccc(OCC[C@@H]4C[C@@H]5CN(CC(F)(F)F)C[C@@H]5C4)cc23)CC1 too.
200 to 1000 nM

Please give the result for [2H][13C]([2H])([2H])C(=O)Nc1c[nH]c2ccc(CCOc3ccc(C(F)(F)F)cc3)cc12 too.
40 to 200 nM

Please give the result for C[C@]1(C(=O)Nc2c[nH]c3ccc(OCc4ccc(C(F)(F)F)cc4)cc23)C[C@H](CO)C1 too.
200 to 1000 nM

Please give the result for CC1(F)CC(C(=O)Nc2c[nH]c3ccc(O[C@H]4C[C@H](c5ccc(C(F)(F)F)cc5)C4)cc23)C1 (some centres unmarked) too.
200 to 1000 nM

Please give the result for C[C@]1(C(=O)Nc2c[nH]c3ccc(OCC[C@@H]4C[C@@H]5CN(CC(F)(F)F)C[C@@H]5C4)cc23)CC[C@H](O)CC1 too.
200 to 1000 nM

Please give the result for CC1(C)OC(C)(C)C1C(=O)Nc1c[nH]c2ccc(OCc3ccc(C(F)(F)F)cc3)cc12 too.
200 to 1000 nM
